koff reference
Target: T1, short isoform of VEGF (8-109) (UniProt P15692 214-315)
T1 construct: range 8-109; Immobilized by amine coupling for SPR; in solution for the fluorescence assay; also called vascular endothelial growth factor
T1 sequence (looked up): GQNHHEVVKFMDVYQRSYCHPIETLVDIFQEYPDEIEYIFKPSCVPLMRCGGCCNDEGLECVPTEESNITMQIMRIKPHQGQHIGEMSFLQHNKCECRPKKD
Test: SPR (BIAcore), VEGF immobilized, 25 mM Tris pH 7.2, 0 M NaCl, 37 C
Give a bare numeral; the unit s⁻¹ is implied.

Would you please look over these solved cases?
- Binder: "Fab Y0101 variant, heavy chain E56K (Fab, name in Kabat numbering, V domains shown, Fab of Y0101 with one heavy chain substitution) VH: EVQLVESGGGLVQPGGSLRLSCAASGYTFTNYGMNWVRQAPGKGLEWVGWINTYTGKPTYAADFKRRFTFSLDTSKSTAYLQMNSLRAEDTAVYYCAKYPHYYGSSHWYFDVWGQGTLVTVSS VL: DIQLTQSPSSLSASVGDRVTITCSASQDISNYLNWYQQKPGKAPKVLIYFTSSLHSGVPSRFSGSGSGTDFTLTISSLQPEDFATYYCQQYSTVPWTFGQGTKVEIKR"
  Unit spec: "s⁻¹"
  Recorded value: 0.00044
- Binder: "Fab Y0101 variant, heavy chain Y99K (Fab, name in Kabat numbering, V domains shown, Fab of Y0101 with one heavy chain substitution) VH: EVQLVESGGGLVQPGGSLRLSCAASGYTFTNYGMNWVRQAPGKGLEWVGWINTYTGEPTYAADFKRRFTFSLDTSKSTAYLQMNSLRAEDTAVYYCAKYPHYKGSSHWYFDVWGQGTLVTVSS VL: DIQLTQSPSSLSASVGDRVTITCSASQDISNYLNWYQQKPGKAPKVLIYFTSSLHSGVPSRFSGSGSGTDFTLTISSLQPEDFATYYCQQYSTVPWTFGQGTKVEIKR"
  Unit spec: "s⁻¹"
  Recorded value: 0.00015
- Binder: "Fab Y0101 variant, heavy chain Y99R (Fab, name in Kabat numbering, V domains shown, Fab of Y0101 with one heavy chain substitution) VH: EVQLVESGGGLVQPGGSLRLSCAASGYTFTNYGMNWVRQAPGKGLEWVGWINTYTGEPTYAADFKRRFTFSLDTSKSTAYLQMNSLRAEDTAVYYCAKYPHYRGSSHWYFDVWGQGTLVTVSS VL: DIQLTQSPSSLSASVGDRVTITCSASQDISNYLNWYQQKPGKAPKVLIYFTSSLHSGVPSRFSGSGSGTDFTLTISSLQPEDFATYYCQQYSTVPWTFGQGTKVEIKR"
  Unit spec: "s⁻¹"
  Recorded value: 0.00014

Here's the next entry for you.
[in] What value of koff has been recorded for this entry: Fab Y0101 variant, heavy chain S100aR (Fab, name in Kabat numbering, V domains shown, Fab of Y0101 with one heavy chain substitution) VH: EVQLVESGGGLVQPGGSLRLSCAASGYTFTNYGMNWVRQAPGKGLEWVGWINTYTGEPTYAADFKRRFTFSLDTSKSTAYLQMNSLRAEDTAVYYCAKYPHYYGRSHWYFDVWGQGTLVTVSS VL: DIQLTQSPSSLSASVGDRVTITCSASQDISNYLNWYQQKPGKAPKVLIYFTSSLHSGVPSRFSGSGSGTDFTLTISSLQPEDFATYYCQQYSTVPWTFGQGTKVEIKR
[out] 0.00024
